Tested on: SF-539 CNS
Experimental protocol: NCI-60 one-dose screen, 48 h (100 = growth as untreated, 0 = no growth, -100 = all killed)
Condition description: 10 µM unless noted
The panel holds about 83,000 compounds, 20% with a hit somewhere; the sample as a whole holds those more often.
Experimental endpoint: growth (%)
Report as a plain number; the unit % is understood.

Query block: Give the value of growth reported for the following: COc1ccc2c(c1)c(/C=N/Nc1ccnc3cc(Cl)ccc13)cn2C
Result block: -82.9

Query block: Give the value of growth reported for the following: CC(Nc1c(C#N)cnc2ccc(-c3cncc(O)c3)cc12)c1ccccc1 (centres undefined)
Result block: 0.714

Query block: Give the value of growth reported for the following: CN1CCN(Cc2ccc(NC(=O)c3cncc(C#Cc4cnc5ccc(OCC6COC6)nn45)c3)cc2C(F)(F)F)CC1
Result block: -88.2

Query block: Give the value of growth reported for the following: O=C(N/N=C/c1cc2ccccc2nc1Cl)c1cc(-c2nc3ccccc3[nH]2)nc2ccccc12
Result block: 103

Query block: Give the value of growth reported for the following: NC(=O)c1ncn2c(=O)n(CCF)nnc12
Result block: 63.9

Query block: Give the value of growth reported for the following: CC(Nc1ncnc2ccc(-c3cnc4cnccn34)cc12)c1ccccc1 (centres undefined)
Result block: 66

Query block: Give the value of growth reported for the following: CCCCOc1ccc(S(=O)(=O)N2CCN(c3nc(C)cc(N4CCOCC4)n3)CC2)cc1
Result block: 75.9

Query block: Give the value of growth reported for the following: COc1cc(OC)cc(-c2cc(-c3c[nH]c4ccccc34)nc(-c3c[nH]c4ccccc34)c2C#N)c1
Result block: 94.2

Query block: Give the value of growth reported for the following: Cc1[nH]c(C(=O)Nc2ccc(C(N)=O)cc2N2CCOC(C)C2)c(Cl)c1Cl (centres undefined)
Result block: 95.7

Query block: Give the value of growth reported for the following: CCOP(=O)(OCC)OC[C@]12CCC(C)(C)C[C@H]1C1=CC[C@@H]3[C@@]4(C)CC[C@H](OP(=O)(OCC)OCC)C(C)(C)[C@@H]4CC[C@@]3(C)[C@]1(C)CC2
Result block: 66.9

Query block: Give the value of growth reported for the following: O=C1Nc2ccc(F)cc2/C1=C\C(=O)c1ccc(NS(=O)(=O)c2ccccc2)cc1
Result block: 97.5

Query block: Give the value of growth reported for the following: O=C(CCl)Nc1ccc(NC(=O)c2cc(Cl)ccc2O)c(Cl)c1
Result block: 73.1

Query block: Give the value of growth reported for the following: CC1=C(C)C(=O)C(Nc2ccc(C)cc2)=C(Br)C1=O
Result block: 100

Query block: Give the value of growth reported for the following: COC(=O)c1ccc(NC2=C(Cl)C(=O)c3nc(C)ccc3C2=O)cc1
Result block: 72.6

Query block: Give the value of growth reported for the following: Cc1ccc2c(n1)C(=O)C(Cl)=C(Nc1ccc(C(C)C)cc1)C2=O
Result block: 96.2

Query block: Give the value of growth reported for the following: COc1ccc2[nH]cc(-c3nc(N)nnc3-c3cn(C)c4ccc(Br)cc34)c2c1
Result block: 18.1

Query block: Give the value of growth reported for the following: C#C[C@]1(O)CC[C@H]2[C@@H]3CC=C4c5sc(Nc6ncccc6C)nc5CC[C@]4(C)[C@H]3CC[C@@]21C
Result block: -56.4

Query block: Give the value of growth reported for the following: C=C(C=O)[C@@H]1CC[C@]2(C(=O)O)CC[C@]3(C)C(CC[C@@H]4[C@@](C)(CCC#N)[C@H](C(=C)C=O)CC[C@]43C)[C@@H]12 (some centres undefined)
Result block: 13.4

Query block: Give the value of growth reported for the following: C#CCOc1cccc(/C(N)=N/C(N)=N/c2nc3ccccc3s2)c1
Result block: 105
